Biological target: ABCD2 WT (Homo sapiens)
Sequence (Q9UBJ2 whole entry): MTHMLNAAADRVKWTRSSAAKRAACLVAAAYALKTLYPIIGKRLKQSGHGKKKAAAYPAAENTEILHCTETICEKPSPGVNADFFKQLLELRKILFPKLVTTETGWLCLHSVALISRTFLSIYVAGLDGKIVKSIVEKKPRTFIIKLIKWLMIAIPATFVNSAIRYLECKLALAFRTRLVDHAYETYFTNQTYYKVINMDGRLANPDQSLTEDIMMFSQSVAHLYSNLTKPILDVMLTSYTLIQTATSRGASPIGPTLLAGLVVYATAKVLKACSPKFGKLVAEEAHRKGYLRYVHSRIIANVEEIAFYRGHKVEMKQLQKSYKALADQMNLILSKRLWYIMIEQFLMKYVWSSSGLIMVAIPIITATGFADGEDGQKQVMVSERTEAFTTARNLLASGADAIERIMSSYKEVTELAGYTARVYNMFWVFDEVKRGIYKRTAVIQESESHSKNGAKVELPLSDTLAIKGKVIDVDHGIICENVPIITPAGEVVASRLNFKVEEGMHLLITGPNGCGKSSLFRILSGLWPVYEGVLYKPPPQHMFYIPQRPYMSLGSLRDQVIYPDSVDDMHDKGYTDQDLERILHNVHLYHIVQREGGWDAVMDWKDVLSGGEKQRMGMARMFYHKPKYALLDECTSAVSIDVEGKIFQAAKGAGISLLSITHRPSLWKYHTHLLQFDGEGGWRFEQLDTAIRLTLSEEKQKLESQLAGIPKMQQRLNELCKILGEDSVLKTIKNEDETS
Assay: D2 correction dose-response assay: ABCD2 WT HiBit protein expression
Details: HEK-293/ABCD2 WT cells, 24 hours treatment, HiBit luminescence; class combines EC50 and Mean MaxAct (fold); read-out: ABCD2 WT EC50, Emax
pEC50: −log10 of the molar value.
READOUT LABEL: pEC50

| MOLECULE | REPORTED RESULT |
| --- | --- |
| Cc1nc(C(F)F)nc(C2CC2)c1Oc1nc(-c2cncc(C#N)c2)ccc1NS(C)(=O)=O [Compound I-144] | < 4.60 |
| Cc1nc(C(F)(F)F)nc(C2CC2)c1Oc1nc(-c2cncc(C#N)c2)ccc1S(=O)(=O)Nc1cnn(C)c1 [Compound I-309] | 5.00 to 6.00 |
| Cc1cc(C(F)(F)F)nc(C2CC2)c1Oc1nc(-c2cncc(C#N)c2)ccc1S(=O)(=O)N(C)C [Compound I-291] | 5.00 to 6.00 |
| CNS(=O)(=O)c1ccc(-c2cncc(C#N)c2)nc1Oc1nc(C)sc1C1CC1 [Compound I-312] | < 4.60 |
| Cc1cc(C(F)F)nc(C2CC2)c1Oc1nc(-c2cncc(C#N)c2)ccc1N(C)S(=O)(=O)C1CC1 [Compound I-134] | 5.00 to 6.00 |
| CCS(=O)(=O)N(C)c1ccc(-c2cncc(C#N)c2)nc1Oc1c(C)cc(C(F)(F)F)nc1C1CC1 [Compound I-148] | > 6.00 |
| Cc1cc(C(F)(F)F)nc(C2CC2)c1Oc1nc(-c2cncc(C#N)c2)ccc1S(=N)(=O)C1CC1 (stereo not drawn) [Compound I-287] | < 4.60 |
| Cc1cc(C2CC2)cc(C)c1Oc1nc(-c2cncc(C#N)c2)ccc1NS(C)(=O)=O [Compound I-271] | < 4.60 |
| Cc1cc(C)c(Oc2nc(-c3cncc(C(C)(C)O)c3)ccc2NS(C)(=O)=O)c(C)n1 [Compound I-220] | < 4.60 |
| Cc1cc(C)c(Oc2nc(-c3cnc(C#N)c(Cl)c3)ccc2NS(C)(=O)=O)c(C)n1 [Compound I-8] | > 6.00 |
| Cc1cc(C)c(Oc2nc(-c3cncc(C#N)c3)ccc2N2CCCS2(=O)=O)c(C)n1 [Compound I-221] | < 4.60 |
| Cc1cc(C)c(Oc2nc(N3CCN(C(=O)C4CCC4)CC3)ccc2NS(C)(=O)=O)c(C)c1 [Compound I-24] | 5.00 to 6.00 |
| Cc1cc(C)c(Oc2nc(-c3cncc(Cl)c3)ccc2NS(C)(=O)=O)c(C)c1 [Compound I-55] | > 6.00 |
| COC(=O)N1CCN(c2ccc(NS(C)(=O)=O)c(Oc3c(C)cc(C)cc3C)n2)CC1 [Compound I-16] | 4.60 to 5.00 |
| Cc1nc(C)c(Oc2nc(-c3cncc(C#N)c3)ccc2N(C)S(C)(=O)=O)c(C2CC2)n1 [Compound I-157] | 4.60 to 5.00 |

Data provenance: patent US20250228835A1
